# Test system: SK-OV-3
# Experiment notes: NCI tumour cell line growth inhibition, 48 h
The source made the active and inactive calls. No stated cut-off is given here; in the data, active = GI50 up to about 1.1 µM and inactive = higher.
Quantity name: GI50

Molecule: COc1ccc(-c2nc3c(nc2-c2ccc(OC)cc2)N(C)S(=O)(=O)N=C3N)cc1
Quantity name: GI50
Result: 24.6 µM (inactive)
--
Molecule: O=C(O)/C(Cl)=C(\Cl)Nc1cccc(C(F)(F)F)c1
Quantity name: GI50
Result: > 100 µM (inactive)
--
Molecule: Cc1cc2c(C(C)C)c(O)c(O)c(/C=N\CCO)c2c(O)c1-c1c(C)cc2c(C(C)C)c(O)c(O)c(/C=N/CCO)c2c1O
Quantity name: GI50
Result: 3.37 µM (inactive)
--
Molecule: CCSC12CC3c4cccc5c4C(CN5C(=O)c4ccccc4)CC3(O1)N(C)C2=O (configuration not stated)
Quantity name: GI50
Result: > 100 µM (inactive)
--
Molecule: CC(C)CC(O)P(=O)(O)O.NC1CCCCC1 (configuration not stated)
Quantity name: GI50
Result: > 100 µM (inactive)
--
Molecule: O=C1c2cccc(O)c2C(=O)c2c(OC3OC(CO)C(O)C(O)C3O)cccc21 (configuration not stated)
Quantity name: GI50
Result: 48.2 µM (inactive)
--
Molecule: CC(=O)c1c[nH]cc1CO
Quantity name: GI50
Result: > 10 µM (inactive)
--
Molecule: O=C1O/C(=C\c2ccc(O)cc2)C(c2ccc(O)c(Cl)c2)=C1Cl
Quantity name: GI50
Result: > 100 µM (inactive)
--
Molecule: Cc1nn2c(=O)c([N+](=O)[O-])c(/C=C/c3ccc(F)cc3)nc2s1
Quantity name: GI50
Result: 12.6 µM (inactive)
--
Molecule: O=C(NC12CC3CC(CC(F)(C3)C1)C2)c1ccccc1
Quantity name: GI50
Result: > 100 µM (inactive)
--
Molecule: O=c1c(Cc2ccc(Cl)cc2)nnc2sc(-c3ccc(-c4ccc(F)c(Cl)c4)o3)nn12
Quantity name: GI50
Result: > 100 µM (inactive)
--
Molecule: O=[N+]([O-])c1cccc(C2ON2C2CCCCC2)c1 (configuration not stated)
Quantity name: GI50
Result: 35.2 µM (inactive)
--
Molecule: O=[N+]([O-])c1ccc2c(c1)nc(Cc1ccc(Cl)cc1)n2C[C@@H]1CCCN2CCCCC12 (some centres not stated)
Quantity name: GI50
Result: 18.9 µM (inactive)
--
Molecule: COc1cc(OC)c(C2CC=Cc3c(OC)cc(OC)c(OC)c32)cc1OC (configuration not stated)
Quantity name: GI50
Result: > 100 µM (inactive)
--
Molecule: CC1(C)OCC(CO)(Nc2nc(N3CC3)nc(N3CC3)n2)CO1
Quantity name: GI50
Result: 5.78 µM (inactive)
--
Molecule: Cc1ccc(S(=O)(=O)NNC2(NS(=O)(=O)c3ccc(Cl)cc3)C(Cl)=C(Cl)C(=O)c3ccccc32)cc1 (configuration not stated)
Quantity name: GI50
Result: 16.9 µM (inactive)
--
Molecule: COCn1c2ccc(OC(C)=O)cc2c2c(=O)oc(N(C)C)nc21
Quantity name: GI50
Result: > 100 µM (inactive)
--
Molecule: CC(C)(C)OC(=O)NCCCCC(N)C(N)=O (configuration not stated)
Quantity name: GI50
Result: 54.7 µM (inactive)
--
Molecule: c1ccc2c(c1)nc1n2CSCC1
Quantity name: GI50
Result: > 100 µM (inactive)
--
Molecule: CCCNc1[nH]c(C(C)=O)c(N)c1C(=S)Nc1ccccc1
Quantity name: GI50
Result: 45.5 µM (inactive)
--
Molecule: CCCCCCCCCCCCCCCCCCOCC(CCP(=O)(CP(=O)(O)O)Oc1ccccc1)OCCCCCCCCCCCCCCCCCC (configuration not stated)
Quantity name: GI50
Result: > 100 µM (inactive)
--
Molecule: CCOC(=O)C(C)c1nc2cc3cccnc3c(Cl)c2[nH]c1=O (configuration not stated)
Quantity name: GI50
Result: > 100 µM (inactive)
